Cited source: patent US10479780B2

- System under test: human Lck enzyme (Homo sapiens)
- Construct: purchased Carna Biosciences, Inc. 08-170
- Sequence (P06239 whole entry): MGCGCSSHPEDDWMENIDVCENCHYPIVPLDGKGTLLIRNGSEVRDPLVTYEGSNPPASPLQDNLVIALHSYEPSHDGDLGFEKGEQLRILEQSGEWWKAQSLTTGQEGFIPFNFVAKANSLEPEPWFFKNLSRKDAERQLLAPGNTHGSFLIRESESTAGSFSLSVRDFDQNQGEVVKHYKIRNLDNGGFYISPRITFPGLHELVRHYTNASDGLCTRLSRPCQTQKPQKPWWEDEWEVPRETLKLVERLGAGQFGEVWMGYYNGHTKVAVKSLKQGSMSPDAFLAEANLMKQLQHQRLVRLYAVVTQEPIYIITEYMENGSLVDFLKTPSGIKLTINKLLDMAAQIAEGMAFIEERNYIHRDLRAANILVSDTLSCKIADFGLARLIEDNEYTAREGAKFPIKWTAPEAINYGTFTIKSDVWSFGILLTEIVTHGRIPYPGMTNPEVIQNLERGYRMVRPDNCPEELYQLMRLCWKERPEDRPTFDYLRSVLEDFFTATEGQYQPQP
- Test description: Lck enzyme inhibitory activity (time-resolved fluorometry, biotinylated peptide phosphorylation)
- Type: biochemical
- Assay context: biotinylated peptide phosphorylation, read-out: LCK_IC50
IC50 values for the molecules below.
Numeric only. Scale: nM

Cc1cc(Oc2c(F)cccc2F)ncc1-n1ncc(C(=O)c2cc3cc(OC(F)F)c(C4CCN(C(=O)CN)CC4)cc3[nH]2)c1N ... 11

Inquiry: What does the data say about its IC50? Entry: Cc1cc(Oc2ccccc2F)ccc1-n1ncc(C(=O)c2cc3cc(OCCN4CC5CC(C4)N5S(C)(=O)=O)c(NS(C)(=O)=O)cc3[nH]2)c1N
Reply text: 3.8

Inquiry: What does the data say about its IC50? Entry: Cc1cc(Oc2c(F)cccc2F)ncc1-n1ncc(C(=O)c2cc3cc(F)c(N4C(=O)N[C@@H](Cc5ccccc5)C4=O)cc3[nH]2)c1N
Reply text: 37

Inquiry: What does the data say about its IC50? Entry: COc1ccccc1-c1cc2[nH]c(C(=O)c3cnn(-c4cnc(Oc5c(F)cccc5F)cc4C)c3N)cc2cc1OC1CCN(C2CCCC2)CC1
Reply text: 15

====

- System under test: human Lck enzyme (Homo sapiens)
- Construct: purchased Carna Biosciences, Inc. 08-170
- Test description: Lck enzyme inhibitory activity (time-resolved fluorometry, biotinylated peptide phosphorylation)
- Format: biochemical
- Assay context: biotinylated peptide phosphorylation, read-out: LCK_IC50
pIC50 values for the compounds below.
Recall that pIC50 is obtained by taking minus log10 of the concentration measured in molar.

COc1cc2cc(C(=O)c3cnn(-c4cnc(Oc5ccccc5F)cc4C)c3N)[nH]c2cc1NS(C)(=O)=O [Example 4-1-008] ... 8.40
Cc1cc2cc(C(=O)c3cnn(-c4cnc(Oc5ccc(F)cc5)cc4C)c3N)[nH]c2cc1N1CCCS1(=O)=O [Example 4-2-119] ... 7.64

Inquiry: // fetch human Lck enzyme (Homo sapiens) pIC50 for Cc1cc(Oc2ccccc2F)cc(F)c1-n1ncc(C(=O)c2cc3cc(OC(F)F)c(N4CCN(S(C)(=O)=O)CC4)cc3[nH]2)c1N [Example 4-23-003]
Reply text: 7.68

====

- System under test: human Src enzyme (Homo sapiens)
- Construct: purchased Carna Biosciences, Inc. 08-173
- Sequence (P12931 whole entry): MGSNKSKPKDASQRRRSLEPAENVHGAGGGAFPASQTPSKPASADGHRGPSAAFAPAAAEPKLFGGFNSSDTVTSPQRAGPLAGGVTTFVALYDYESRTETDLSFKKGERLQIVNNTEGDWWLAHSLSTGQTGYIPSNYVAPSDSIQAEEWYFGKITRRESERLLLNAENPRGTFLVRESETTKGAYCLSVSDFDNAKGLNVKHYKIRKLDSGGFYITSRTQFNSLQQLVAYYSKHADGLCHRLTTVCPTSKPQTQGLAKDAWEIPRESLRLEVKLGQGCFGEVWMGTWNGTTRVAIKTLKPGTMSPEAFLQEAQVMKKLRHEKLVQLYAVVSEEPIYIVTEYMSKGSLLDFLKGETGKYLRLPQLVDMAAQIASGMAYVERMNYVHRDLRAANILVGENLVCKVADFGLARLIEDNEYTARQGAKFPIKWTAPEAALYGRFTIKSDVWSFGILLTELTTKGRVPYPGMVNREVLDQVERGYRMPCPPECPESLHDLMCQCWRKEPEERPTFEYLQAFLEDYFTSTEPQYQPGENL
- Test description: Src enzyme inhibitory activity (time-resolved fluorometry, biotinylated peptide phosphorylation)
- Assay type: biochemical
- Assay context: biotinylated peptide phosphorylation, read-out: SRC_IC50
pIC50: −log10 of the molar value.
// label = Condition met if pIC50 is not less than 7, otherwise Condition not met

Answered cases to consult:
Cc1cc(Oc2ccccc2F)ccc1-n1ncc(C(=O)c2cc3cc(OCC(F)F)c(N4C(=O)NC(C)(C)C4=O)cc3[nH]2)c1N ... Condition met
CC(=O)N1CCC(c2cc3[nH]c(C(=O)c4cnn(-c5cnc(Oc6c(F)cccc6F)cc5C)c4N)cc3cc2OCC(F)F)CC1 ... Condition met
Cc1cc2cc(C(=O)c3cnn(-c4cnc(Oc5ccccc5F)cc4C)c3N)[nH]c2cc1NS(=O)(=O)c1ccccn1 ... Condition not met
Cc1cc(-n2ncc(C(=O)c3cc4cc(F)c(NS(N)(=O)=O)cc4[nH]3)c2N)ccc1Oc1ccccc1F ... Condition met
Cc1cccc(S(=O)(=O)Nc2cc3[nH]c(C(=O)c4cnn(-c5cnc(Oc6ccccc6F)cc5C)c4N)cc3cc2C)n1 ... Condition not met

Inquiry: State whether the measured pIC50 reaches 7, counting equality as reaching it, for Cc1cc2[nH]c(C(=O)c3cnn(-c4c(C)cc(Oc5ccccc5F)cc4F)c3N)cc2cc1NS(C)(=O)=O
Reply text: Condition met

Inquiry: State whether the measured pIC50 reaches 7, counting equality as reaching it, for Cc1cc2cc(C(=O)c3cnn(-c4cnc(Oc5ccccc5F)cc4C)c3N)[nH]c2cc1NS(=O)(=O)c1cncc(C#N)c1
Reply text: Condition not met

Inquiry: State whether the measured pIC50 reaches 7, counting equality as reaching it, for Cc1cc(Oc2cc(F)cc(F)c2)ncc1-n1ncc(C(=O)c2cc3cc(F)c(NS(=O)(=O)CCCF)cc3[nH]2)c1N
Reply text: Condition not met

Inquiry: State whether the measured pIC50 reaches 7, counting equality as reaching it, for Cc1cc2cc(C(=O)c3cnn(-c4cnc(Oc5ccccc5F)cc4C)c3N)[nH]c2cc1NS(=O)(=O)c1cncc(Cl)c1
Reply text: Condition not met

Inquiry: State whether the measured pIC50 reaches 7, counting equality as reaching it, for Cc1cc2cc(C(=O)c3cnn(-c4cnc(Oc5ccccc5F)cc4C)c3N)[nH]c2cc1NS(=O)(=O)c1cc(C(F)(F)F)ccn1
Reply text: Condition not met
